From: ChEMBL document CHEMBL1126086

Species on record: Rattus norvegicus
Test: Concentration required to cause 50% inhibition of spontaneous activity in rat portal vein
Type: functional
Conditions: Rattus norvegicus
Property Label: IC50 (nM)
The reply should contain only the number, in nM.

Ask: Give its IC50 value. Item: CC(C)(C)CCN/C(=C\[N+](=O)[O-])Nc1cccnc1
Result: 2000

Ask: Give its IC50 value. Item: CCC(C)N1CCN=C1Nc1cccnc1 (configuration not stated)
Result: 100000

Ask: Give its IC50 value. Item: CC(C)N/C(=C\[N+](=O)[O-])Nc1cccnc1
Result: 31600

Ask: Give its IC50 value. Item: CC(N/C(=C\[N+](=O)[O-])Nc1ccncc1)C(C)(C)C (configuration not stated)
Result: 1000

Ask: Give its IC50 value. Item: COc1cncc(N/C(=C/[N+](=O)[O-])N[C@H](C)C(C)(C)C)c1
Result: 1580

Ask: Give its IC50 value. Item: CC(C)(C)C/N=C(/S)Nc1cccnc1
Result: 200

Ask: Give its IC50 value. Item: COc1cncc(N/C(=C/[N+](=O)[O-])N[C@@H](C)C(C)(C)C)c1
Result: 15.8

Ask: Give its IC50 value. Item: CC(C)(C)/N=C(/NC#N)Nc1cccnc1
Result: 12.6

Ask: Give its IC50 value. Item: C[C@H](/N=C(/S)Nc1ccncc1)C(C)(C)C.Cl
Result: 316

Ask: Give its IC50 value. Item: CC(C)(C)CN/C(=C\[N+](=O)[O-])Nc1ccncc1
Result: 10000

Ask: Give its IC50 value. Item: O=[N+]([O-])/C=C(/Nc1cccnc1)NC1CCCCC1
Result: 3160

Ask: Give its IC50 value. Item: CC(C)(C)C1CN=C(Nc2cccnc2)N1 (configuration not stated)
Result: 3160

###

Provide the recorded pKa for the entries that follow.
Test: Ionisation constant (pKa1) due to protonation of the pyridyl ring
Type: physicochemical
Conditions: read-out: pKa1
Lab note: jot the number down without any unit.

Ask: Give its pKa value. Item: CC(/N=C(/NC#N)Nc1cccnc1)C(C)(C)C (stereo not drawn)
Result: 2.7

Ask: Give its pKa value. Item: CCC(C)(C)/N=C(\NC#N)Nc1cccnc1
Result: 2.61

Ask: Give its pKa value. Item: CC(C)(C)CNC(=O)Nc1ccncc1.Cl
Result: 5.46

Ask: Give its pKa value. Item: CC(C)(C)C1CN=C(Nc2cccnc2)N1 (stereo not drawn)
Result: 2.03

Ask: Give its pKa value. Item: COc1cncc(N/C(=C/[N+](=O)[O-])N[C@@H](C)C(C)(C)C)c1
Result: 1.86

Ask: Give its pKa value. Item: CC(C)(C)C/C(=N/c1cccnc1)NC#N
Result: 2.23

Ask: Give its pKa value. Item: C[C@H](/N=C(/S)Nc1ccncc1)C(C)(C)C.Cl
Result: 4.89

Ask: Give its pKa value. Item: CC(/N=C(/S)Nc1cccnc1)C(C)(C)C (stereo not drawn)
Result: 2.97

Ask: Give its pKa value. Item: CC(N/C(=C\[N+](=O)[O-])Nc1cccnc1)C(C)(C)C (stereo not drawn)
Result: 2.28

Ask: Give its pKa value. Item: CC(C)(C)c1csc(Nc2cccnc2)n1
Result: 3.57

Ask: Give its pKa value. Item: CC(C)(C)/N=C(\Cc1cccnc1)NC#N
Result: 2.71

Ask: Give its pKa value. Item: CC(C)(C)C/N=C(/S)Nc1cccnc1
Result: 3.08

Ask: Give its pKa value. Item: CC(C)(C)C/N=C(/NC#N)Nc1cccnc1
Result: 2.83

###

Provide the recorded pKa for the entries that follow.
Experiment: Ionisation constant (pKa1) due to protonation of the pyridyl ring
Type: physicochemical
Conditions: read-out: pKa1
Lab note: jot the number down without any unit.

Ask: Give its pKa value. Item: CC(C)(C)C1CSC(Nc2cccnc2)=N1 (stereo not drawn)
Result: 3.89

Ask: Give its pKa value. Item: CC(C)(C)CNC(=O)Nc1cccnc1
Result: 3.74

Ask: Give its pKa value. Item: CC(N/C(=N\C#N)Nc1ccncc1)C(C)(C)C (stereo not drawn) [PINACIDIL ANHYDROUS]
Result: 4.81

###

Provide the recorded pKa for the entries that follow.
Test: Ionisation constant (pKa2) due to […]
Type: physicochemical
Conditions: read-out: pKa2
Lab note: jot the number down without any unit.

Ask: Give its pKa value. Item: CC1(C)CN=C(Nc2cccnc2)N1
Result: 8.2

Ask: Give its pKa value. Item: CC(C)(C)C1CN=C(Nc2cccnc2)N1 (stereo unspecified)
Result: 8.1

Ask: Give its pKa value. Item: C[C@H](/N=C(/S)Nc1ccncc1)C(C)(C)C.Cl
Result: 13

Ask: Give its pKa value. Item: CC(N/C(=C\[N+](=O)[O-])Nc1cccc(C#N)c1)C(C)(C)C (stereo unspecified)
Result: 8.88

Ask: Give its pKa value. Item: COc1cncc(N/C(=C/[N+](=O)[O-])N[C@@H](C)C(C)(C)C)c1
Result: 6.5

###

Experiment: Ionisation constant (pKa2) due to […]
Format: physicochemical
Settings: read-out: pKa2
Provide the recorded pKa for the entries that follow.
Lab note: jot the number down without any unit.

Ask: Give its pKa value. Item: CC(C)(C)C/N=C(/S)Nc1cccnc1
Result: 13.1

Ask: Give its pKa value. Item: CC(N/C(=C\[N+](=O)[O-])Nc1cccnc1)C(C)(C)C (stereo unspecified)
Result: 9.03

Ask: Give its pKa value. Item: CC(C)(C)C/N=C(/NC#N)Nc1cccnc1
Result: 11.8

Ask: Give its pKa value. Item: CCC(C)(C)/N=C(\NC#N)Nc1cccnc1
Result: 12.2

Ask: Give its pKa value. Item: CC(N/C(=N\C#N)Nc1ccncc1)C(C)(C)C (stereo unspecified) [PINACIDIL ANHYDROUS]
Result: 11.3

###

Species on record: Rattus norvegicus
Assay: Concentration required to cause 50% inhibition of spontaneous activity in rat portal vein
Type: functional
Conditions: Rattus norvegicus
Provide the recorded pIC50 for the entries that follow.
As a rule, pIC50 stands for the negative log10 of the concentration, concentration in M.

Ask: Give its pIC50 value. Item: CC(C)(C)CNC(=O)Nc1ccncc1.Cl
Result: 5.50

Ask: Give its pIC50 value. Item: CC(C)(C)/N=C(\Cc1cccnc1)NC#N
Result: 5.30

Ask: Give its pIC50 value. Item: CC(N/C(=N\C#N)Nc1ccncc1)C(C)(C)C (stereo not given) [PINACIDIL ANHYDROUS]
Result: 7.20

Ask: Give its pIC50 value. Item: CC(N/C(=C\[N+](=O)[O-])Nc1cccc(C#N)c1)C(C)(C)C (stereo not given)
Result: 6.50

###

Species on record: Rattus norvegicus
Test: Concentration required to cause 15% increase in [86Rb+] efflux from rat portal vein.
Assay type: functional
Property Label: pEC15

Ask: Give its pEC15 value. Item: CC(C)(C)C(CO)/N=C(/S)Nc1cccnc1 (stereo not given)
Result: <3.5

Ask: Give its pEC15 value. Item: CCC(C)N1CCN=C1Nc1cccnc1 (stereo not given)
Result: <3

Ask: Give its pEC15 value. Item: CC(C)N/C(=C\[N+](=O)[O-])Nc1cccnc1
Result: <3.5

Ask: Give its pEC15 value. Item: CC(C)(C)CN/C(=C\[N+](=O)[O-])NCc1cccnc1
Result: <3.5

Ask: Give its pEC15 value. Item: CC(C)(C)CN/C(=C\[N+](=O)[O-])Nc1ccncc1
Result: <3.5
